molecular target: SARS-CoV-2 NSP3 macrodomain (Mac1), P43 crystal form (Severe acute respiratory syndrome coronavirus 2); format: binding; conditions: site of Mac1 where ligand bound in crystal structure
property.label: Binding site

Please review the entries below; each comes with its answer.
- compound: "O=C1CCc2cc(C(=O)N3CC(C(=O)O)CCC34CCCC4)c(F)cc2N1 (stereo not drawn)"
  property.label: "Binding site"
  result: "Adenosine"
- compound: "Cc1c(C)n(Cc2ccccc2)c2ncnc(N)c12"
  property.label: "Binding site"
  result: "Adenosine"
- compound: "Nc1nnc(SCCn2c(=O)oc3ccccc32)s1"
  property.label: "Binding site"
  result: "Distal"
- compound: "CNc1ccc(NS(=O)(=O)c2cc3cccc(C)c3s2)cn1"
  property.label: "Binding site"
  result: "Adenosine"
- compound: "O=C(O)C(c1ccccc1)n1sc2ccccc2c1=O (stereo not drawn)"
  property.label: "Binding site"
  result: "Adenosine"

Next compound, Binding site to be filled in.
-- ask Which Binding site value is on record for `Cc1ccc2c(c1)CC[C@@H](C(=O)Nc1nnc3n1CCCC3)O2` ?
-- reply Distal

###

Please provide measured Hill slope for the entries that follow.
molecular target: SARS-CoV-2 NSP3 macrodomain (Mac1) (Severe acute respiratory syndrome coronavirus 2); assay: biochemical; format: binding; details: HTRF dose-response fit, Mac1
Give bare numbers.

Example compounds with recorded Hill slope:
- compound: "O[C@H]1CC[C@@H]2CCN(c3ncnc4[nH]ccc34)[C@@H]21"
  Hill slope: 1.2
- compound: "CC(C)(O)C1N(c2ncnc3[nH]ccc23)CCC1(C)C (centres unmarked)"
  Hill slope: 1.3
- compound: "CC(CNC(=O)c1ccc2c(c1)CCC(=O)N2)C(=O)O (centres unmarked)"
  Hill slope: 1.3

Quick request: Hill slope for each listed item, please.
1. CC(O)C1CCCN1c1ncnc2[nH]ccc12 (centres unmarked)
2. CC(C)(O)C1C2CCCCC2CN1c1ncnc2[nH]ccc12 (centres unmarked)

-- reply
1. 1.1
2. 1.3

###

Provide the reported Total number of conformations of each item.
target: SARS-CoV-2 NSP3 macrodomain (Mac1), P43 crystal form (Severe acute respiratory syndrome coronavirus 2); format: binding; settings: ligand conformations modeled in Mac1 crystal structure
Answers are plain numbers.

Below: 5 compounds and their reported Total number of conformations.
- compound: "CC(O)C(C)Nc1ncnc2[nH]ccc12 (centres unmarked)"
  Total number of conformations: 2
- compound: "O[C@H]1CC[C@@H]2CCN(c3ncnc4[nH]ccc34)[C@@H]21"
  Total number of conformations: 1
- compound: "CC(C)(CO)Nc1ncnc2[nH]ccc12"
  Total number of conformations: 1
- compound: "OCC(Nc1ncnc2[nH]ccc12)C1CC1 (centres unmarked)"
  Total number of conformations: 1
- compound: "OCC(Nc1ncnc2[nH]ccc12)C1CCCC1 (centres unmarked)"
  Total number of conformations: 1

Give me Total number of conformations for each of these compounds, listed below.
1. OCC(Nc1ncnc2[nH]ccc12)c1ccco1 (centres unmarked)
2. OCC(CC1CCCO1)Nc1ncnc2[nH]ccc12 (centres unmarked)
3. OC1(CNc2ncnc3[nH]ccc23)CCCSC1 (centres unmarked)
4. OCC(CC1CCOC1)Nc1ncnc2[nH]ccc12 (centres unmarked)

-- reply
[1, 1, 1, 1]

Field: Total number of conformations. Fill in for each record below.
1. CC(C)C1CCCN1c1ncnc2[nH]ccc12 (centres unmarked)
2. Cc1ccc(CC(CO)Nc2ncnc3[nH]ccc23)cc1C (centres unmarked)

-- reply
[1, 2]
